Target: T1, human LAP-TGFB1 Fc fusion (human)
T1 construct: also called human LAP-TGFβ1-Fc; human LAP-TGFβ-Fc isoform 1
T1 sequence (chain, as listed by the source limits assumed): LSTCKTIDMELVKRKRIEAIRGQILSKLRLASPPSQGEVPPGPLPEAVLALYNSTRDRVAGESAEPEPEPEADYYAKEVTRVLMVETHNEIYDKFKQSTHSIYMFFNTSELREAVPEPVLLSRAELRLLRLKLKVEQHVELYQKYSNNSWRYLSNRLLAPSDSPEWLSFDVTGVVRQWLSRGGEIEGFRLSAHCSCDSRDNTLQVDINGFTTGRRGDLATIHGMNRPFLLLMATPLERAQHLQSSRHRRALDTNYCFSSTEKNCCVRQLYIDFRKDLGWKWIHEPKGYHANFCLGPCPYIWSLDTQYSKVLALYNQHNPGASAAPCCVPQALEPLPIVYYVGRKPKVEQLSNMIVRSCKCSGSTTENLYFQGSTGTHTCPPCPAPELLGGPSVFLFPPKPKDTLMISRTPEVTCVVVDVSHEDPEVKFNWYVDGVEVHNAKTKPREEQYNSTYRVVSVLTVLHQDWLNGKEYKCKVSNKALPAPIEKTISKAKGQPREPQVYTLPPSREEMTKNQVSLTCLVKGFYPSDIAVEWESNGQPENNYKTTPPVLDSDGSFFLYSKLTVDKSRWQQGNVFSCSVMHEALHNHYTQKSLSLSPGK
Assay: SPR pH 7.4, antigen-Fc captured, Fab analyte
I'd be grateful if you could share measured kon for these entries.
Include the unit right after the number.

| binder | kon |
| --- | --- |
| 67BLH (Fab, V domains shown, also called 19BLM Fab) VH: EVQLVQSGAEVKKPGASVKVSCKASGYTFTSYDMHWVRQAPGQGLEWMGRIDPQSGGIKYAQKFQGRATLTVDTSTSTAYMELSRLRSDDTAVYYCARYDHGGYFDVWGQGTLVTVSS VL: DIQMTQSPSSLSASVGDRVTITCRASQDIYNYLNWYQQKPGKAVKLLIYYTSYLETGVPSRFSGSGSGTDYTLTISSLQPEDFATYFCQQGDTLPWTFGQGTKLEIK | 4.95e+06 M⁻¹ s⁻¹ |

Would you kindly look at the next entry?
Return reported kon; argument: 60BLH (Fab, V domains shown, also called 12BLM Fab) VH: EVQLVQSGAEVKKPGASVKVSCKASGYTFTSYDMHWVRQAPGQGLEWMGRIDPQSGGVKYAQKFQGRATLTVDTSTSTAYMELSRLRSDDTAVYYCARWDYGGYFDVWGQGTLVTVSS VL: DIQMTQSPSSLSASVGDRVTITCRASQDIYNYLNWYQQKPGKAVKLLIYYTSVLETGVPSRFSGSGSGTDYTLTISSLQPEDFATYFCQQGDELPWTFGQGTKLEIK
7.91e+06 M⁻¹ s⁻¹

Where do these numbers come from? They come from patent US20230272056A1.
